Exercise: for every item that follows, state its recorded percentage of EdU-negative.
Tested on: hTERT-HMEC;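 also: secreted proteins added to cultured cells, EdU pulse at the end, nuclei found by Hoechst imaging, EdU status from nuclear versus surrounding ring intensity ratio, PBS as neutral control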
experimental protocol: percentage of EdU-negative (G0-arrested) nuclei per well, 72 h; higher = more G0 arrest
assay conditions: protein concentration 0.225 µM; reference: sequence is the full UniProt precursor, the tested protein was the secreted form or ectodomain
Answers are plain numbers, in %.

sequence chain | assay target | u | experimental result
MKVTGIFLLSALALLSLSGNTGADSLGREAKCYNELNGCTKIYDPVCGTDGNTYPNECVLCFENRKRQTSILIQKSGPC | hTERT-HMEC | % | 4.61
MRRLLIPLALWLGAVGVGVAELTEAQRRGLQVALEEFHKHPPVQWAFQETSVESAVDTPFPAGIFVRLEFKLQQTSCRKRDWKKPECKVRPNGRKRKCLACIKLGSEDKVLGRLVHCPIETQVLREAEEHQETQCLRVQRAGEDPHSFYFPGQFAFSKALPRS | hTERT-HMEC | % | 5.88
MLPPPRPAAALALPVLLLLLVVLTPPPTGARPSPGPDYLRRGWMRLLAEGEGCAPCRPEECAAPRGCLAGRVRDACGCCWECANLEGQLCDLDPSAHFYGHCGEQLECRLDTGGDLSRGEVPEPLCACRSQSPLCGSDGHTYSQICRLQEAARARPDANLTVAHPGPCESGPQIVSHPYDTWNVTGQDVIFGCEVFAYPMASIEWRKDGLDIQLPGDDPHISVQFRGGPQRFEVTGWLQIQAVRPSDEGTYRCLGRNALGQVEAPASLTVLTPDQLNSTGIPQLRSLNLVPEEEAESEENDDYY [Q96I82] | hTERT-HMEC | % | 5.18

Query: percentage of EdU-negative; subject: MAAAVVLAAGLRAARRAVAATGVRGGQVRGAAGVTDGNEVAKAQQATPGGAAPTIFSRILDKSLPADILYEDQQCLVFRDVAPQAPVHFLVIPKKPIPRISQAEEEDQQLLGHLLLVAKQTAKAEGLGDGYRLVINDGKLGAQSVYHLHIHVLGGRQLQWPPG [Q9BX68] 5.01

Recorded values, source the supplement of paper PMC11316812.
